- Tested on: OVCAR-5 ovarian
- assay-explanation: NCI tumour cell line growth inhibition, 48 h
value-kind: TGI

CCCC(S(=O)(=O)c1ccccc1)S(=O)(=O)c1ccccc1 :: > 100 µM
CN1CCN(P2(=S)Oc3ccc4ccccc4c3-c3c(ccc4ccccc34)O2)CC1 :: > 100 µM
FC(F)(F)c1cccc(-c2nn3ncccc3c2-c2ccnc(Nc3ccc4c(c3)OCCO4)n2)c1 :: > 25 µM
COc1cccc(C2c3cc4c(cc3OC3COC(=O)C32)OCO4)c1OC (stereo not given) :: > 100 µM
CC(C)(C)OC(=O)NCCCCC(N)NC(=O)c1ccccc1 (stereo not given) :: > 100 µM

Proceeding to the next molecule to report its TGI.
Record summary for CC(=O)O[C@@H]1C[C@@]2(C)[C@@H]3CC=C4[C@@H](C[C@H](O)C(=O)C4(C)C)[C@]3(C)C(=O)C[C@]2(C)[C@H]1[C@@](C)(O)C(=O)/C=C/C(C)(C)OC(C)=O : reported TGI = > 86 µM
